# collection of log10 IC50 values tested on UniProtKB P0DTD1
Measured parameter: log10 IC50 (log10 of the value in nM)

Item smiles	Observed value
C[C@H](NC(=O)C(F)F)C(=O)N(C)[C@@H](CC1CC1)C(=O)N1C[C@]2(C[C@H]1C#N)C(=O)Nc1ccccc12	1.33
C[C@H](NC(=O)C(F)(F)F)C(=O)N(C)[C@@H](CC1CC1)C(=O)N1C[C@]2(C[C@H]1C#N)C(=O)Nc1ccccc12	1.41
CC(=O)N[C@H](C(=O)N1C[C@H]2[C@@H]([C@H]1C(=O)N[C@H](C#N)C[C@@H]1CCNC1=O)C2(C)C)c1cc(Cl)c(OCCN(C)C)c(Cl)c1	4.45
CN(C)CCOc1c(Cl)cc([C@H](NC(=O)CF)C(=O)N2C[C@H]3[C@@H]([C@H]2C(=O)N[C@H](C#N)C[C@@H]2CCNC2=O)C3(C)C)cc1Cl	2.36
CC(C)C[C@@H](C(=O)N1C[C@]2(C[C@H]1C#N)C(=O)Nc1ccccc12)N(C)C(=O)[C@H](C)NC(=O)C(C)(C)F	1.39
CC(C)C[C@@H](C(=O)N1C[C@]2(C[C@H]1C#N)C(=O)Nc1ccccc12)N(C)C(=O)[C@H](C)NC(=O)C(C)C	1.47
